System: acetylcholine-induced abdominal constriction
Experiment: acetylcholine-induced abdominal constriction test (ACH)
Format: in vivo
Conditions: Mus musculus, Table 9, Examples; mice; no route marked in the cell; read-out: ACH ED50
Quick reference: ED50 of the listed items.
measurement type: ED50

- compound: "COc1ccc(C(=O)c2c(C(C)C)n(CC3CCCN(C)C3)c3ccc(F)cc23)cc1 (centres unmarked)"
  reported: "21 mg/kg"
- compound: "COc1ccc(C(=O)c2c(C)n(CC3CCCN3C)c3ccccc23)cc1 (single isomer, unassigned) [2E(d)]"
  reported: "47 mg/kg"
- compound: "COc1ccc(C(=O)c2c(C)n(C3CCN(C)C3)c3ccccc23)cc1 (centres unmarked)"
  reported: "20 mg/kg"
- compound: "COc1ccc(C(=O)c2c(C)n(C3CCCN(C)C3)c3ccccc23)cc1.Cl (racemic)"
  reported: "33 mg/kg"
- compound: "COc1ccc(C(=O)c2c(C)n(CC3CSCCN3C)c3ccccc23)cc1 (centres unmarked)"
  reported: "33 mg/kg"
- compound: "Cc1c(C(=O)c2ccccc2F)c2ccccc2n1CC1CCCN(C)C1 (centres unmarked)"
  reported: "32 mg/kg"
- compound: "COc1ccc(C(=O)c2c(C)n(CC3C[S+]([O-])CCN3C)c3ccccc23)cc1 (centres unmarked)"
  reported: "5 mg/kg"
- compound: "COc1ccc(C(=O)c2c(C)n(CC3CCCCN3C)c3ccccc23)cc1 (centres unmarked)"
  reported: "33 mg/kg"

All values here come from patent US5817651A.
